Structures can show the parent of a compound that is named as a salt.
Record form. Attribute: melting point. Fill in for each entry.

INPUT: Quick one: melting point of COc1ccc(C(=O)C2CCN(C3CCN(Cc4ccncc4)CC3O)CC2)cc1 (racemic) (as salt: oxalate) [Compound 14h] ?
OUTPUT: 188 °C (dec.)

INPUT: Quick one: melting point of Cc1ccc(C(=O)C2CCN(C3Cc4c(N)cccc4CC3O)CC2)cn1 (stereo not shown) (as salt: oxalate) [OS-5-70] ?
OUTPUT: 98 to 103 °C

INPUT: Quick one: melting point of Nc1cccc2c1CC(N1CCC(C(=O)c3cccnc3)CC1)C(O)C2 (stereo not shown) (as salt: oxalate) [OS-5-110] ?
OUTPUT: 109 to 111.2 °C

INPUT: Quick one: melting point of O=C(c1ccc(F)cc1)C1CCN(C2CCN(C(=O)c3ccc(F)cc3)CC2O)CC1 (stereo not shown) (as salt: oxalate) [Compound 15a] ?
OUTPUT: 213 °C (dec.)

INPUT: Quick one: melting point of Cn1cccc1C(=O)C1CCN(C2Cc3ccccc3CC2O)CC1 (stereo not shown) (as salt: oxalate) [OS-5-60] ?
OUTPUT: 212 to 213 °C

INPUT: Quick one: melting point of O=C(c1ccc(F)cc1)C1CCN(C2CCN(C(=O)c3ccccc3)CC2O)CC1 (stereo not shown) (as salt: oxalate) [Compound 15c] ?
OUTPUT: 152 °C (dec.)

INPUT: Quick one: melting point of COc1ccc(C(=O)C2CCN(C3Cc4c(N)cccc4CC3O)CC2)cn1 (stereo not shown) (as salt: oxalate) [OS-5-82] ?
OUTPUT: 81.4 to 83.2 °C

INPUT: Quick one: melting point of COc1ccc(C(=O)C2CCN(C3CCN(C(=O)c4ccncc4)CC3O)CC2)cc1 (stereo not shown) (as salt: oxalate) [Compound 15g] ?
OUTPUT: 220 °C (dec.)

INPUT: Quick one: melting point of COc1ccc(C(=O)C2CCN(C3CCN(C(=O)c4ccc(F)cc4)CC3O)CC2)cc1 (stereo not shown) (as salt: oxalate) [Compound 15e] ?
OUTPUT: 216 °C (dec.)

INPUT: Quick one: melting point of COc1ccc(C(=O)C2CCN(C3CCN(Cc4ccccc4)CC3O)CC2)cc1 (racemic) (as salt: oxalate) [Compound 14g] ?
OUTPUT: 234 °C (dec.)

* * *

systemName: σ1 receptors (Rattus norvegicus, UniProt Q9R0C9)
Construct: tested in rat brain and in guinea pig membranes, respectively; from tissue; host or cells: rat brain
Sequence (Q9R0C9 whole entry): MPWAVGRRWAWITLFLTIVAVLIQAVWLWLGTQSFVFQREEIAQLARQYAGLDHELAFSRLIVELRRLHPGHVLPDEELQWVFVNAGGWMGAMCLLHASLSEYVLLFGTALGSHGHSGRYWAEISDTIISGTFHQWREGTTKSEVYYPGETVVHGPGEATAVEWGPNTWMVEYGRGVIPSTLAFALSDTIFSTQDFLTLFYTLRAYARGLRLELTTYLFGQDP
experimentNotes: σ1 binding of Table 5 compounds
Structures can show the parent of a compound that is named as a salt.
Record form. Attribute: Ki. Fill in for each entry.
Express your answer in µM, writing the number without its unit.

INPUT: Quick one: Ki of `O=C(c1ccc(OCCF)nc1)C1CCN([C@H]2Cc3ccccc3C[C@@H]2O)CC1` ?
OUTPUT: 2.12

INPUT: Quick one: Ki of Cn1cccc1C(=O)C1CCN(C2Cc3ccccc3CC2O)CC1 (stereo not shown) [OS-5-60, oxalate] ?
OUTPUT: 1.3

INPUT: Quick one: Ki of Nc1cccc2c1CC(N1CCC(C(=O)c3cccnc3)CC1)C(O)C2 (stereo not shown) [OS-5-110, oxalate] ?
OUTPUT: 20.3

INPUT: Quick one: Ki of COc1ccc(C(=O)C2CCN(C3Cc4c(N)cccc4CC3O)CC2)cn1 (stereo not shown) [OS-5-82, oxalate] ?
OUTPUT: 5.68

INPUT: Quick one: Ki of Cc1ccc(C(=O)C2CCN(C3Cc4ccccc4CC3O)CC2)cn1 (stereo not shown) [OS-5-40, oxalate] ?
OUTPUT: 2.11

INPUT: Quick one: Ki of O=C(c1ccc(OCCF)cc1)C1CCN(C2Cc3ccccc3CC2O)CC1 (stereo not shown) ?
OUTPUT: 0.0132

INPUT: Quick one: Ki of CNc1ccc(C(=O)C2CCN(C3Cc4ccccc4CC3O)CC2)cc1 (stereo not shown) ?
OUTPUT: 0.0132

* * *

systemName: VAChT (Tetronarce californica)
Where a name gives a salt, the structure may show the parent alone.
Record form. Attribute: Ki. Fill in for each entry.
Express your answer in nM, writing the number without its unit.

INPUT: Quick one: Ki of Nc1cccc2c1CC(N1CCC(C(=O)c3cccnc3)CC1)C(O)C2 (centres unmarked) [OS-5-110, oxalate] ?
OUTPUT: 118

INPUT: Quick one: Ki of COc1ccc(C(=O)C2CCN(C3Cc4c(N)cccc4CC3O)CC2)cn1 (centres unmarked) [OS-5-82, oxalate] ?
OUTPUT: 48

INPUT: Quick one: Ki of Cn1cccc1C(=O)C1CCN(C2Cc3ccccc3CC2O)CC1 (centres unmarked) [OS-5-60, oxalate] ?
OUTPUT: 18.4

INPUT: Quick one: Ki of COc1cccnc1C(=O)C1CCN(C2Cc3ccccc3CC2O)CC1 (centres unmarked) [TZ-4-1-92, oxalate] ?
OUTPUT: 121

INPUT: Quick one: Ki of Cn1c(C(=O)C2CCN(C3Cc4ccccc4CC3O)CC2)cccc1=O (centres unmarked) ?
OUTPUT: 182

* * *

Record form. Attribute: Ki. Fill in for each entry.
Where a name gives a salt, the structure may show the parent alone.
Express your answer in nM, writing the number without its unit.

INPUT: // lookup Ki | system=VAChT (Tetronarce californica, UniProt P81721) | key= CNc1ccc(C(=O)C2CCN(C3Cc4ccccc4CC3O)CC2)cc1 (centres unmarked) [TZ-3-156]
OUTPUT: 3.03

INPUT: // lookup Ki | system=VAChT (Tetronarce californica, UniProt P81721) | key= Cc1ccc(C(=O)C2CCN(C3Cc4c(N)cccc4CC3O)CC2)cn1 (centres unmarked) [OS-5-70, oxalate]
OUTPUT: 48

INPUT: // lookup Ki | system=VAChT (Tetronarce californica, UniProt P81721) | key= O=C(c1cncc(F)c1)C1CCN(C2Cc3ccccc3CC2O)CC1 (centres unmarked) [TZ-4-1-96, oxalate]
OUTPUT: 10.1

INPUT: // lookup Ki | system=VAChT (Tetronarce californica, UniProt P81721) | key= O=C(c1ccc(OCCF)nc1)C1CCN([C@H]2Cc3ccccc3C[C@@H]2O)CC1 [TZ-5-3]
OUTPUT: 38

INPUT: // lookup Ki | system=VAChT (Tetronarce californica, UniProt P81721) | key= O=C(c1cccnc1F)C1CCN(C2Cc3ccccc3CC2O)CC1 (centres unmarked) [TZ-4-1-122]
OUTPUT: 12.7

* * *

systemName: σ2 receptor (Rattus norvegicus)
Sequence (Q5U3Y7 whole entry): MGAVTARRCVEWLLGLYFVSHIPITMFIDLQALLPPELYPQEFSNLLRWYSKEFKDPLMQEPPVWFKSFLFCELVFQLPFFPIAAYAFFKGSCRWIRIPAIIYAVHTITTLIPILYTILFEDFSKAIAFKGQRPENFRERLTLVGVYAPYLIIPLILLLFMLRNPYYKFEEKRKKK
experimentNotes: σ2 receptor binding assay, [3H]DTG, rat liver membrane homogenates
Parameters: conducted using rat liver membrane homogenates; from tissue; host or cells: rat liver membrane homogenates
condition: Sigma-2 σ1 (nM), Table 4, Ki values of VAChT specific compounds; tissue not given
Where a name gives a salt, the structure may show the parent alone.
Record form. Attribute: Ki. Fill in for each entry.
Express your answer in nM, writing the number without its unit.

INPUT: Quick one: Ki of Cc1ccc(C(=O)C2CCN(C3Cc4ccccc4CC3O)CC2)cn1 (stereo not drawn) [OS-5-40, oxalate] ?
OUTPUT: 3770

INPUT: Quick one: Ki of Cn1cccc1C(=O)C1CCN(C2Cc3ccccc3CC2O)CC1 (stereo not drawn) [OS-5-60, oxalate] ?
OUTPUT: 2550

INPUT: Quick one: Ki of Nc1cccc2c1CC(N1CCC(C(=O)c3cccnc3)CC1)C(O)C2 (stereo not drawn) [OS-5-110, oxalate] ?
OUTPUT: 5080

* * *

systemName: VAChT (Tetronarce californica, UniProt P81721);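 further: VAChT binding measured with highly purified Torpedo synaptic vesicles, σ1 affinity in rat brain and σ2 affinity in guinea pig membranes, values given as equilibrium Ki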
Construct: using highly purified Torpedo synaptic vesicles; from tissue
Sequence (P81721 1-515): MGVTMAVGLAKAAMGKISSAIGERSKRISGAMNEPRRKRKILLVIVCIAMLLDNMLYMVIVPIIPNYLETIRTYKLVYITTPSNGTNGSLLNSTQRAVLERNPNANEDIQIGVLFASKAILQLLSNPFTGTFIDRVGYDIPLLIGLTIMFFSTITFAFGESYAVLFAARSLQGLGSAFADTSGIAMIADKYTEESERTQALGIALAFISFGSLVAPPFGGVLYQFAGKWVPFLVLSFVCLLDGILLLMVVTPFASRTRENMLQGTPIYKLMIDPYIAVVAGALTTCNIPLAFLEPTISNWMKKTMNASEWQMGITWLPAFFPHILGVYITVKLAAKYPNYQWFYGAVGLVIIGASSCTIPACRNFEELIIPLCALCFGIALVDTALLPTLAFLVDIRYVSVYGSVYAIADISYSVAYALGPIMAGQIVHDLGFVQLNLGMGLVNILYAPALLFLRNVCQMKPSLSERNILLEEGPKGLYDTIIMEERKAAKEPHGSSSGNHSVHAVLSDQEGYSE
experimentNotes: biochemical
Assay type: binding
condition: in words
Where a name gives a salt, the structure may show the parent alone.

[
  {
    "compound": "Cn1c(C(=O)C2CCN(C3Cc4ccccc4CC3O)CC2)cccc1=O (centres unmarked) [TZ-4-1-148]",
    "VAChT/σ selectivity": "poor selectivity"
  },
  {
    "compound": "O=C(c1cccnc1F)C1CCN(C2Cc3ccccc3CC2O)CC1 (centres unmarked) [TZ-4-1-122]",
    "VAChT/σ selectivity": "moderate or high"
  },
  {
    "compound": "O=C(c1ccc(F)nc1)C1CCN(C2Cc3ccccc3CC2O)CC1 (centres unmarked) [TZ-4-1-154, oxalate]",
    "VAChT/σ selectivity": "moderate or high"
  },
  {
    "compound": "O=C(c1ccc(OCCF)cc1)C1CCN(C2Cc3ccccc3CC2O)CC1 (centres unmarked) [TZ-3-148]",
    "VAChT/σ selectivity": "poor selectivity"
  }
]

Reference source for all entries: patent US8658131B2
